biological target: Toll-like receptor 9 (Homo sapiens, UniProt Q9NR96); assay: Antagonism Assay: Day 1: A cell suspension of HEK-Blue™-hTLR9 cells at ~450,000 cells per ml in test medium which contained 5% (v/v) heat inactivated FBS was prepared. 180 μl of cell suspension (Ë¿80,000 cells) was added per well of a flat-bottom 96-well plate and place in an incubator at 37° C. for overnight. Day 2: Test compounds were serially diluted in test medium, generally starting at 10 μM, and diluting by 3 fold in a 96 well master plate. 20 μl of diluted test compound was transferred using a 12 channel multi-channel pipet to the cell plate and incubated at 37° C. for 1 hour. Then 20 μl of an hTLR9 agonist (such as ODN 2006, 1 μM) was added to each well and the plate incubated at 37° C. overnight. Day 3: Invivogen's QUANTI-Blue™ was prepared following the manufacturer's instructions. […] of resuspended QUANTI-Blue™ was added per well of a flat bottom 96-well plate. 20 μl per well of induced HEK-Blue™-hTLR9 cells supernatant was then added to the plate and the plate was incubated at 37° C. for 1-3 h. SEAP levels were determined using a spectrophotometer at 620 nm.
Sequence (Q9NR96 whole entry): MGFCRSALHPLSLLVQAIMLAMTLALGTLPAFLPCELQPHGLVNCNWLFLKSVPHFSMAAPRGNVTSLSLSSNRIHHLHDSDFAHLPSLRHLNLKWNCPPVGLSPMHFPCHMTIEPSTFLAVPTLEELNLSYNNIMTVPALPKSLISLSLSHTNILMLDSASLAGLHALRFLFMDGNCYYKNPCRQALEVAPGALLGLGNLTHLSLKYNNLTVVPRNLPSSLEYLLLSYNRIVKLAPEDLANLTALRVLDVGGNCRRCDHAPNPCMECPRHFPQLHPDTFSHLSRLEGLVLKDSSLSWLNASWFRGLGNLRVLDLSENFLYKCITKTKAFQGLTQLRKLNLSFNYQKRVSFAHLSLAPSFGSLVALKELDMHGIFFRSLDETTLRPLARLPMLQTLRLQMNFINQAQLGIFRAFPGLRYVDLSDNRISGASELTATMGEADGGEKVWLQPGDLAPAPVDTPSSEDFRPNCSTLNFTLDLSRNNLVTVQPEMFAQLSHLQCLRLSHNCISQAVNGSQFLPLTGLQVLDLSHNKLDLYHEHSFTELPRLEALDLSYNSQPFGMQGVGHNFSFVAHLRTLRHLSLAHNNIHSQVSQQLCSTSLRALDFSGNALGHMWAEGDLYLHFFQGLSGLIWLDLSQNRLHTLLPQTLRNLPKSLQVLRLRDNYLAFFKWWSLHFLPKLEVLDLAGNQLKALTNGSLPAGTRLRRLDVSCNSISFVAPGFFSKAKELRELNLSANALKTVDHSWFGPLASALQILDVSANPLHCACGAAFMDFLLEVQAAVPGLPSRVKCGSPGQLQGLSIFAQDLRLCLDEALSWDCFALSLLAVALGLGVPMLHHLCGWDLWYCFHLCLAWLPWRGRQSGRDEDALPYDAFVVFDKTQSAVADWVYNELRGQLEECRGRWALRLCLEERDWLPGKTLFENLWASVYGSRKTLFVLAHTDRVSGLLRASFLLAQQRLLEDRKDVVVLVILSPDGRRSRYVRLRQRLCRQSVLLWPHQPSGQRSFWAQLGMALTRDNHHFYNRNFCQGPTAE
pIC50: −log10 of the molar value.

- Input Smiles: "O=c1c(C(F)(F)F)nc2c(NCCN3CCOCC3)nc(-c3ccccc3)nc2n1CCN1CCOCC1"
  Comparison Sign: "="
  pIC50: 5.42
- Input Smiles: "CN1CCN(c2cnc3c(NCCCNc4nc(N)nc(N)n4)nc(-c4ccccc4)nc3n2)CC1"
  Comparison Sign: "="
  pIC50: 6.70
- Input Smiles: "O=c1c(-c2cc(F)cc(F)c2)nc2c(NCCN3CCOCC3)nc(-c3ccccc3)nc2n1CCN1CCOCC1"
  Comparison Sign: "="
  pIC50: 6.05
- Input Smiles: "N#Cc1ccc(-c2nc3c(NCCN4CCOCC4)nc(-c4ccccc4)nc3n(CCN3CCOCC3)c2=O)cc1"
  Comparison Sign: "="
  pIC50: 6.31
- Input Smiles: "O=c1c(-c2ccccc2)nc2c(NCCN3CCOCC3)nc(-c3ccccc3)nc2n1CCN1CCOCC1"
  Comparison Sign: "="
  pIC50: 6.86
- Input Smiles: "CN1CCN(c2ccc(-c3nc(NCCN4CCOCC4)c4nccnc4n3)cc2)CC1"
  Comparison Sign: "="
  pIC50: 6.55
- Input Smiles: "CN(C)CCN(C)c1nc(-c2ccccc2)nc2nc(N3CCN(C)CC3)cnc12"
  Comparison Sign: "="
  pIC50: 6.95
- Input Smiles: "CN1CCN(c2cnc3c(NCCCn4cncn4)nc(-c4ccccc4)nc3n2)CC1"
  Comparison Sign: "="
  pIC50: 5.53
- Input Smiles: "CN1CCN(CCNc2nc(-c3ccccc3)nc3nc(N4CCN(C)CC4)cnc23)CC1"
  Comparison Sign: "="
  pIC50: 6.95
- Input Smiles: "CN1CCN(c2nc3nc(-c4ccccc4)nc(NCCN4CCOCC4)c3nc2NCCN2CCOCC2)CC1"
  Comparison Sign: "="
  pIC50: 6.50
- Input Smiles: "CN1CCN(c2cnc3c(NCCc4ccncc4)nc(-c4ccccc4)nc3n2)CC1"
  Comparison Sign: "="
  pIC50: 6.00
- Input Smiles: "Cc1cnc(CNc2nc(-c3ccccc3)nc3nc(N4CCN(C)CC4)cnc23)cn1"
  Comparison Sign: "="
  pIC50: 5.60
- Input Smiles: "CN1CCN(c2nc3nc(-c4ccc(C(C)(C)C)cc4)nc(NCCN4CCOCC4)c3nc2NCCN2CCOCC2)CC1"
  Comparison Sign: "="
  pIC50: 6.56
- Input Smiles: "Cc1nc2c(NCCN3CCOCC3)nc(-c3ccccc3)nc2n(CCN2CCOCC2)c1=O"
  Comparison Sign: "="
  pIC50: 5.61
- Input Smiles: "CN1CCN(c2nc3nc(-c4ccccc4)nc(NCCN4CCOCC4)c3nc2Cl)CC1"
  Comparison Sign: "="
  pIC50: 7.21
- Input Smiles: "CN1CCN(c2cnc3c(NCCc4ccccn4)nc(-c4ccccc4)nc3n2)CC1"
  Comparison Sign: "="
  pIC50: 5.66
- Input Smiles: "CN1CCN(c2cnc3c(NCCSC(=N)N)nc(-c4ccccc4)nc3n2)CC1"
  Comparison Sign: "<"
  pIC50: 5.00
- Input Smiles: "CN1CCN(CCNc2nc(-c3ccccc3)nc3c2nc(-c2ccccc2)c(=O)n3CCN2CCN(C)CC2)CC1"
  Comparison Sign: "="
  pIC50: 6.91

meta.source: ChEMBL document CHEMBL3886773
